Where do these numbers come from? They come from ChEMBL document CHEMBL2163204.

# assayed.target: Neuronal acetylcholine receptor subunit alpha-7 (Rattus norvegicus) (UniProt Q05941)
# Sequence (Q05941 whole entry): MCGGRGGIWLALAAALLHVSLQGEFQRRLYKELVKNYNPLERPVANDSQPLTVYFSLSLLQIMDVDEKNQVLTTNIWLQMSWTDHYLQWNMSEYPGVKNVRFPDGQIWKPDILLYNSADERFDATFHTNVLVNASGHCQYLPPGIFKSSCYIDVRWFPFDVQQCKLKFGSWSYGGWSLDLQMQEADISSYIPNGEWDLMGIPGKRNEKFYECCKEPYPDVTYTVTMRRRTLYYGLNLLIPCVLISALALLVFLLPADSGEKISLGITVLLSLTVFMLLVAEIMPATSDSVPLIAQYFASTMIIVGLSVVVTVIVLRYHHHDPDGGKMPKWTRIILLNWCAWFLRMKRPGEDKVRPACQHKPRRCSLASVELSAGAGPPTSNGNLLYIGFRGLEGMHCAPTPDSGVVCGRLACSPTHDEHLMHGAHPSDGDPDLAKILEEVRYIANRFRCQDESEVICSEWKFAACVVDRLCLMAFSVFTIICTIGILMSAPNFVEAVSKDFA
# assay.notes: Antagonist activity at rat alpha7 nAChR expressed in Xenopus laevis oocytes assessed as inhibition of acetylcholine-induced response at 100 uM after 2 to 6 days by two electrode voltage clamp assay
# Assay type: functional, cell-based
# particulars: Oocyte
Note to self: values exactly at 50% are TRUE. So inhibition at or above 50% is TRUE, below is FALSE.

compound: O=[N+]([O-])c1ccc(-c2cc(C3CC4CCC3N4)cnc2F)cc1 (racemic)
assigned.class: TRUE

compound: CS(=O)(=O)c1ccc(-c2cc(C3CC4CCC3N4)cnc2F)cc1 (racemic)
assigned.class: FALSE

compound: O=S(=O)(c1ccc(-c2cc(C3CC4CCC3N4)cnc2F)cc1)C(F)(F)F (racemic)
assigned.class: FALSE

compound: NS(=O)(=O)c1ccc(-c2cc(C3CC4CCC3N4)cnc2F)cc1 (racemic)
assigned.class: FALSE

compound: NC(=O)c1ccc(-c2cc(C3CC4CCC3N4)cnc2F)cc1 (racemic)
assigned.class: TRUE

Query block: In plain terms: is recorded inhibition at least 50% for Fc1ncc(C2CC3CCC2N3)cc1-c1ccc(C(F)(F)F)cc1 (racemic) ?
Result block: FALSE
